# experimental_setup: in isopropanol, 323.15 K
measured_metric: solubility (mole fraction)
One number for each entry.

The compound listed as "CCn1c2ccccc2c2cc(-n3nncc3-c3ccccc3)ccc21" has a reported solubility (mole fraction) of 0.00224

---

# experimental_setup: in water, 298.15 K
measured_metric: solubility (mole fraction)
One number for each entry.

The compound listed as "CCn1c2ccccc2c2cc(-n3nncc3-c3ccccc3)ccc21" has a reported solubility (mole fraction) of 1.96e-06

---

# experimental_setup: in n-propanol, 298.15 K
measured_metric: solubility (mole fraction)
Answers are plain numbers.

The molecule listed as "CCn1c2ccccc2c2cc(-n3nncc3-c3ccccc3)ccc21" has a reported solubility (mole fraction) of 0.0013
